- systemName: recombinant human FAAH (rhFAAH) (Homo sapiens, UniProt O00519)
- Construct: purchased Cayman Chemical (Ann Arbor, MI, USA)
- Sequence (O00519 1-579): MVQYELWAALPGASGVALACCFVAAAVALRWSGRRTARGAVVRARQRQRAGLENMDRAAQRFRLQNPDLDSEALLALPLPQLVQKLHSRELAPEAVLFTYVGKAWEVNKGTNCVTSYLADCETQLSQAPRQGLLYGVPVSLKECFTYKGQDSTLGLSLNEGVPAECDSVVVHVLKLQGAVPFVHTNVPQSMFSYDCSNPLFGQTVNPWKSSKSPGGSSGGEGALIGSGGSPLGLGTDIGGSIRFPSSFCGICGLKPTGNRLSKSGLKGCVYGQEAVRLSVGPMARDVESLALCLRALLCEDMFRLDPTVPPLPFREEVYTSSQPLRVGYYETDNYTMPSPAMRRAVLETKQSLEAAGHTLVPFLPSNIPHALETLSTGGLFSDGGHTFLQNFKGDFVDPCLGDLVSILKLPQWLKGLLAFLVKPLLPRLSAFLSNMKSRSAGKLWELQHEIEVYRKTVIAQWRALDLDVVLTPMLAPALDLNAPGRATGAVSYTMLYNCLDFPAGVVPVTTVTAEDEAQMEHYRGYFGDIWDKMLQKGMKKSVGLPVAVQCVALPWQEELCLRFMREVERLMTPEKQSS
- testMethodNotes: FAAH substrate evaluation (acid metabolite formation)
- Format: biochemical
- statedConditions: 0.5 ng/L rhFAAH, 1 μM test compound, Tris-EDTA buffer pH 8.0, room temperature, 0-60 minutes
assayReadout: ke (observed rate constant for the acid metabolite formation)

molecule	recordedValue
Cc1n[nH]c(C)c1CCCOc1cc(C(N)=O)ccc1F	D (ke is 0)
CCc1cc(/C(C)=N/OCc2ccc(C3CCCCC3)c(C(F)(F)F)c2)ccc1CN1CC(C(=O)NC2CC2F)C1 (stereo not drawn)	D (ke is 0)
CNC(=O)c1ccc2nc(-c3cc(Cl)cc(Cl)c3)oc2c1	D (ke is 0)
